# Test system: RARg homodimer (NR concentration 270 nM)
# ASSAY_TEXT: PBM binding z-score (relative to random genomic background probes); higher = stronger binding; sequences stand for … in GC…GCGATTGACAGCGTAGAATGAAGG
Binary call on PBM binding z-score: true (1) from 2 upward, false (0) beneath that.

Quick check: does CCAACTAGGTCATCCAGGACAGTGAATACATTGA have PBM binding z-score greater than or equal to 2? true (1)

Is PBM binding z-score at least 2? Consider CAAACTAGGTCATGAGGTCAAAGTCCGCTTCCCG true (1)

Dear colleague, could you confirm whether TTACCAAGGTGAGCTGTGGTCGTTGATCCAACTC has PBM binding z-score at or above 2? false (0)

Answer whether PBM binding z-score of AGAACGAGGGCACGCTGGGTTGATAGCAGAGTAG is greater than or equal to 2. true (1)

Quick check, PBM binding z-score >= 2? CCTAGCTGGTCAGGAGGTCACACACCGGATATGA true (1)

Could you verify whether the entry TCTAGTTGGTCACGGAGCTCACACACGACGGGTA shows PBM binding z-score of no less than 2? false (0)

Kindly determine if PBM binding z-score recorded for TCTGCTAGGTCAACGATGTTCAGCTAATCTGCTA is above or exactly 2. true (1)

Hello, I need to know if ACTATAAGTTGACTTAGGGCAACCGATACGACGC has measured PBM binding z-score not below 2. Thanks! false (0)

Given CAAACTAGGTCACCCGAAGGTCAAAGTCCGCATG , state whether its PBM binding z-score is at least 2. true (1)

Quick check: does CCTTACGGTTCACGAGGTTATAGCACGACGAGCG have PBM binding z-score greater than or equal to 2? false (0)

Record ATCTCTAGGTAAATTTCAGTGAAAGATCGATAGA ; criterion: PBM binding z-score no lower than 2. Met? false (0)

Has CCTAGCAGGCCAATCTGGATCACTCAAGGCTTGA a recorded PBM binding z-score greater than or equal to 2? false (0)

# check: PBM binding z-score of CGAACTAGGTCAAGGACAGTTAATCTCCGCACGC is greater than or equal to 2 true (1)

In plain terms: is recorded PBM binding z-score at least 2 for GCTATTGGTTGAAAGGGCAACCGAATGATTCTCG ? false (0)
